For each entry below, report its MFI at 5 nM value.
target: T1, human PD-1 expressed on cells (human, UniProt Q15116 25-288); assay: flow cytometry, hPD1-293 cells
T1 construct: whole, on cells
T1 sequence (Q15116 25-288): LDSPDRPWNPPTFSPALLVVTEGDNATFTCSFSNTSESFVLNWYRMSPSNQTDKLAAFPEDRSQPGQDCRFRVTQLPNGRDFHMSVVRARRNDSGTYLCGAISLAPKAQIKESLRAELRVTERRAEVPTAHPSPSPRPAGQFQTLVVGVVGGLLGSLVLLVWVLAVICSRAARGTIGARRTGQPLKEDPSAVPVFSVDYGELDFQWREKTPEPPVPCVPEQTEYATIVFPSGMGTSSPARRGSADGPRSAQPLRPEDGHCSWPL

Dear colleague, please send me the reported MFI at 5 nM for 38A6 (antibody, V domains shown, also called 780_46) VH: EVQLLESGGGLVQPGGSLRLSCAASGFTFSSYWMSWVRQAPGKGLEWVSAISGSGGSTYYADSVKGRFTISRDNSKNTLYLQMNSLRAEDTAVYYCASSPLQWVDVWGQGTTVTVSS VL: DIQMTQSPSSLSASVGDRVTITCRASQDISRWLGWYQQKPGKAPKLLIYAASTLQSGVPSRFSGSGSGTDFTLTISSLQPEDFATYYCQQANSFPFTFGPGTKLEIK when you can. 110 MFI

Dear colleague, please send me the reported MFI at 5 nM for 31B1 (antibody, V domains shown, also called 780_38; 33B1 and 31B2 (apparent misprints)) VH: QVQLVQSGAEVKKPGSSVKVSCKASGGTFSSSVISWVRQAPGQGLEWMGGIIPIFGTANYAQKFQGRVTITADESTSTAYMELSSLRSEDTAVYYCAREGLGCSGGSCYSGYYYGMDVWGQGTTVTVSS VL: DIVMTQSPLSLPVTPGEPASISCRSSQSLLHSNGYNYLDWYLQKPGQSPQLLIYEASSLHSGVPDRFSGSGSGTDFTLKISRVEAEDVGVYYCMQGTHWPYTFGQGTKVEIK when you can. 46.4 MFI

Measured values drawn from patent US20230416363A1 for this set.
